Source of measurements: patent US12649733B2

# IC50 values compiled below
- EXPERIMENTAL_SYSTEM: BCLXL (Homo sapiens, UniProt Q07817, V10N/V9A)
- Sequence (Q07817 with tags, fused parts or gaps V9A/V10N): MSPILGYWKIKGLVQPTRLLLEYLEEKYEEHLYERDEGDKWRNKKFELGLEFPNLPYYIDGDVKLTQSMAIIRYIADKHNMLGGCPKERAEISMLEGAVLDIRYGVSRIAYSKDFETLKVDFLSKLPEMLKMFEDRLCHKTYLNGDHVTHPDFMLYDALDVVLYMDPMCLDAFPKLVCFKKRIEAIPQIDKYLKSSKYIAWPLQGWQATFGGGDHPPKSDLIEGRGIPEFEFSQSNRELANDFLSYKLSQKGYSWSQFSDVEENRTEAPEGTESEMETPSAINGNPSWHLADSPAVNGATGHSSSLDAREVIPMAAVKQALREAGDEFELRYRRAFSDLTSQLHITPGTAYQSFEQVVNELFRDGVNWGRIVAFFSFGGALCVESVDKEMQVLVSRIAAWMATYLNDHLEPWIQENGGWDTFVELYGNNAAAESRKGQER
- PROCEDURE_DETAILS: AlphaLISA assay (BIM peptide displacement)
- MEASUREMENT_CONDITIONS: 20 pM protein, 1 nM peptide
- Experimental: AlphaLISA assay measures an increase in alpha signal upon binding biotinylated GST(1-218)-(FACTOR_XA)-hs ? […] An 11-point serial dilution of each compound was prepared in DMSO, the final buffer conditions were 10 mM 4-(2-hydroxyethyl)-1-piperazineethanesulfonic acid [HEPES], 150 mM NaCl, 0.05% Tween 20, pH 7.4 and 4% DMSO. […] Finally the donor bead is added and incubated for 2 hours at 23° C. before Alpha signal measured on a Biotek Synergy2 plate reader (Excitation 680 nm, emission 615 nm).

COMPOUND	OUTPUT_UNIT	IC50
Cc1cc(N(CCCCNCCN2CCN(C)CC2)c2nc(C(=O)O)c(CCCOc3ccc(C#CCN(C)C)cc3F)s2)nnc1Nc1nc2ccccc2s1	pM	12
Cc1cc(N(C)c2nc(C(=O)O)c(CCCOc3ccccc3F)s2)nnc1Nc1nc2ccccc2s1	pM	140
Cc1cc(N(C)c2nc(C(=O)O)c(CCCOc3ccc(C#CCN(C)C)cc3F)s2)nnc1Nc1nc2ccccc2s1	pM	7.4
Cc1cc(N(CCCCO)c2nc(C(=O)O)c(CCCOc3ccc(C#CCN(C)C)cc3F)s2)nnc1Nc1nc2ccccc2s1	pM	5.3
